These entries and their values trace back to the supplement of paper PMC9732359.

# METHOD DESCRIPTION: protein stability index of a GFP-peptide fusion (yeast GPS) (PSI 1-4); higher = more stable; sorted into four equal gates, so the index is relative within each strain
# RECORDED CONDITIONS: san1∆
REPORTED ENDPOINT: protein stability index
Just the number, please, no unit attached.

Known results for sequences:
Look at this sequence and give its reported protein stability index. QLTEFWTELCQREFKEI [NNF1] 3.06

Same lookup for LELQVAQAFVELENSSP [RPS7A] , please. 2.92

Same lookup for LQETLNKSTSSEAEYSK [YIL149C/MLP2] , please. 3.27

Same lookup for KKDSKPAFSFGISNGSE [YLR335W/NUP2] , please. 3.1

---
Look at this sequence and give its reported protein stability index. QLAVKIINKVLDYQETY [YJL039C/NUP192] 2.51

Same lookup for MTEHETKDKAKKIREIY [BRR2] , please. 2.27

Same lookup for IVALSSEEINQYVTQIE [PRE6] , please. 3.11

Same lookup for IVMQLRKCCNHPYLFEG [ISW2] , please. 2.74

Same lookup for SNKKETKKKRKPTEVND [ITC1] , please. 3.26

Same lookup for NTIIRDGSKMLKRADYT [RPN14] , please. 3.65

Same lookup for VREHYLRSDIPCLSRSC [DIS3] , please. 2.59

Same lookup for NASKVISTPIINAVLVN [RPO31] , please. 1.74

Same lookup for QRDFRKHGAVHMSTYLK [RPL21B] , please. 2.48

Same lookup for PESIDTILSSKLSNIWM [SRB2] , please. 2.92

Same lookup for DKSTTQLRKEIQLLDEN [MED11] , please. 1.71

Same lookup for LGQYVQAHTLYNSVRPF [PRE10] , please. 2.78

Same lookup for GKTYMGWWGHMGGPKQK [QCR8] , please. 1.63

====

# METHOD DESCRIPTION: protein stability index of a GFP-peptide fusion (yeast GPS) (PSI 1-4); higher = more stable; sorted into four equal gates, so the index is relative within each strain
# RECORDED CONDITIONS: san1∆
Catalogue of protein stability index values
Just the number, please, no unit attached.

Known results for sequences:
Look at this sequence and give its reported protein stability index. KTASLGNSKDDLLDMIQ [ISW2] 3.36

Same lookup for RAKALGIKVTNPKGRLA [RPL32] , please. 2.87

Same lookup for HPKIVKKHTKKFKRHHS [RPL32] , please. 2.66

---
Look at this sequence and give its reported protein stability index. DSQDYILSINAIDYEPE [SMC1] 3

====

# METHOD DESCRIPTION: protein stability index of a GFP-peptide fusion (yeast GPS) (PSI 1-4); higher = more stable; sorted into four equal gates, so the index is relative within each strain
# RECORDED CONDITIONS: san1∆
Would you please tag the item T when its protein stability index is 2 or above, and F when it is below?

Example cases with answers are listed next.
Reported protein stability index at or above 2? EENNYQYGYSGSSAGMN [SNF6] F

Same lookup for NHASMDVYNRELDEHTT [BRR2] , please. T

Same lookup for MSGLPPPPPGFEEDSDL [PRP8] , please. T

Same lookup for YKAISAQADKQDISSST [FAS2] , please. T

Same lookup for TAIGIATKEGVVLGVEK [PUP2] , please. T

---
Reported protein stability index at or above 2? IQELRKLLKSLLLNYLE [MED7] F

Same lookup for MLWGGASMLGLFVFTEG [QCR10] , please. T

Same lookup for TNLYKLKEERAIEPETF [PUP3] , please. T

Same lookup for SKLIPEVINKEIENATK [RPS1A] , please. T

Same lookup for QQNPKFLQSQRQQQQRS [SWI1] , please. T

Same lookup for DQIAVCEISGSIEQLRN [BRN1] , please. T
